Tested on: HTR2A EGR1p
procedure.details: ERBBprofiler barcoded EGR1p pathway sensor, HTR2A co-transfected
measurement.context: Rattus norvegicus, PC-12, 6 h, read-out: HTR2A EGR1p IC50
readout.type: IC50 (nM)

C=CC(=O)Nc1cc(Nc2nccc(-c3cn(C)c4ccccc34)n2)c(OC)cc1N(C)CCN(C)C [Osimertinib, Osimertinib (AZD9291)] | 109
CCOc1cc2ncc(C#N)c(Nc3ccc(OCc4ccccn4)c(Cl)c3)c2cc1NC(=O)/C=C/[C@H]1CCCN1C [Pyrotinib] | 160
CS(=O)(=O)CCNCc1ccc(-c2ccc3ncnc(Nc4ccc(OCc5cccc(F)c5)c(Cl)c4)c3c2)o1 [Lapatinib, Lapatinib (GW-572016) Ditosylate] | 45

Recorded values, source paper PMC10831936.
